Hi there, I'd appreciate the recorded MIC for every entry that follows.
test system: Staphylococcus aureus ATCC 5488/23; assay: "In vitro" MIC, Staphylococcus aureus ATCC 5488/23; type: cell-based; settings: ATCC5488; Staphylococcus aureus ATCC 5488/23; dextrose agar, 37° C., 20 hours; read-out: "In vitro" MIC
Answers are plain numbers, in µg/mL.

These solved cases illustrate the format of a correct answer.
Reported MIC for Cn1cc(C(=O)O)c(=O)c2cc(F)c(-n3cccc3)cc21 was 0.5

Reported MIC for O=C(O)c1cn(CCO)c2cc(-n3cccc3)c(F)cc2c1=O was 0.5

Reported MIC for CCCn1cc(C(=O)O)c(=O)c2cc(F)c(-n3cccc3)cc21 was 0.5

Reported MIC for CNn1cc(C(=O)O)c(=O)c2cc(F)c(-n3cccc3)cc21 was 0.25

Reported MIC for CCNn1cc(C(=O)O)c(=O)c2cc(F)c(-n3cccc3)cc21 was 0.25

Reported MIC for C=Cn1cc(C(=O)O)c(=O)c2cc(F)c(-n3cccc3)cc21 was 0.5

Reported MIC for O=C(O)c1cn(CCF)c2cc(-n3cccc3)c(F)cc2c1=O was 0.062

In the following, a different compound is considered.
Reported MIC for O=C(O)c1cn(CC2CC2)c2cc(-n3cccc3)c(F)cc2c1=O was 2

Taken from patent US4727080A.
